Origin of values: patent US5550110A

Field: pIC50. Provide a value for each of the compounds that follow.
tgt: endothelin receptor (ETB), rat cerebellar membranes (Rattus norvegicus, UniProt P21451)
Sequence (P21451 27-442): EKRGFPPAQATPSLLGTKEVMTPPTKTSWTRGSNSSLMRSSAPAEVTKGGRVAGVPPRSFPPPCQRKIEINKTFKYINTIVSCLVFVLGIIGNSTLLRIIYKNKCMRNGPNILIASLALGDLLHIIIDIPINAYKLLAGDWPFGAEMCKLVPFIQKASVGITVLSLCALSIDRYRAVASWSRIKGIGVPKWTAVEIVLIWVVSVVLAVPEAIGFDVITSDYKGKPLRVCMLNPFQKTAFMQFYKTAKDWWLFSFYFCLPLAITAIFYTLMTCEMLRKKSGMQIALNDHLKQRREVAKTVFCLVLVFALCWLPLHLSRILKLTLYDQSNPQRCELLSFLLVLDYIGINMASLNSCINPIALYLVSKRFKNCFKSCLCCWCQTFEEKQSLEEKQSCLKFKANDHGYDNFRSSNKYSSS
Peptide text beside a SMILES is read from it.
One number for each entry, as −log10 of the molar value.

Some solved entries appear below for comparison.
CC[C@H](C)[C@H](NC(=O)[C@H](CC(=O)O)NC(=O)[C@H](CC(C)C)NC(=O)[C@@H](NC(C)=O)C1c2ccccc2Sc2ccccc21)C(=O)N[C@H](C(=O)N[C@@H](Cc1c[nH]c2ccccc12)C(=O)O)[C@@H](C)CC [Example 12, Ac-L-Txg-Leu-Asp-Ile-Ile-Trp] (HELM PEPTIDE1{[ac].[O=C([C@@H](N[*:1])C1c2ccccc2Sc2ccccc21)[*:2]].L.D.I.I.W}$$$$V2.0) = 5.68
CC[C@H](C)[C@H](NC(=O)[C@H](CC(=O)O)NC(=O)[C@H](CCCN)NC(=O)[C@H](NC(C)=O)C1c2ccccc2CCc2ccccc21)C(=O)N[C@H](C(=O)N[C@@H](Cc1c[nH]c2ccccc12)C(=O)O)[C@@H](C)CC [Example 7, Ac-D-Bhg-Orn-Asp-Ile-Ile-Trp] (HELM PEPTIDE1{[ac].[O=C([C@H](N[*:1])C1c2ccccc2CCc2ccccc21)[*:2]].[Orn].D.I.I.W}$$$$V2.0) = 5.82
CC[C@H](C)[C@H](NC(=O)[C@H](CC(=O)O)NC(=O)[C@H](CC(C)C)NC(=O)[C@H](N)C1c2ccccc2Sc2ccccc21)C(=O)N[C@H](C(=O)N[C@@H](Cc1c[nH]c2ccccc12)C(=O)O)[C@@H](C)CC [Example 13, D-Txg-Leu-Asp-Ile-Ile-Trp] (HELM PEPTIDE1{[N[C@@H](C(=O)[*:2])C1c2ccccc2Sc2ccccc21].L.D.I.I.W}$$$$V2.0) = 6.42
CC[C@H](C)[C@H](NC(=O)[C@@H](NC(=O)[C@H](CC(=O)O)N(C)C(=O)[C@H](CC(C)C)NC(=O)[C@H](NC(C)=O)C1c2ccccc2CCc2ccccc21)[C@@H](C)CC)C(=O)N[C@@H](Cc1c[nH]c2ccccc12)C(=O)O [Example 15, Ac-D-Bhg-Leu-N-MeAsp-Ile-Ile-Trp] (HELM PEPTIDE1{[ac].[O=C([C@H](N[*:1])C1c2ccccc2CCc2ccccc21)[*:2]].L.[meD].I.I.W}$$$$V2.0) = 5.72

For each listed entry, give its pIC50.
1. CC[C@H](C)[C@H](NC(=O)[C@H](CC(=O)O)NC(=O)[C@H](CC(C)C)NC(=O)[C@H](NC(C)=O)C1c2ccccc2Sc2ccccc21)C(=O)N[C@H](C(=O)N[C@@H](Cc1c[nH]c2ccccc12)C(=O)O)[C@@H](C)CC [Example 5, Ac-D-Txg-Leu-Asp-Ile-Ile-Trp] (HELM PEPTIDE1{[ac].[O=C([C@H](N[*:1])C1c2ccccc2Sc2ccccc21)[*:2]].L.D.I.I.W}$$$$V2.0)
2. CC[C@H](C)[C@H](NC(=O)[C@H](CC(=O)O)NC(=O)[C@H](CC(C)C)NC(=O)[C@H](NC(C)=O)C1c2ccccc2C=Cc2ccccc21)C(=O)N[C@H](C(=O)N[C@@H](Cc1c[nH]c2ccccc12)C(=O)O)[C@@H](C)CC [Example 6, Ac-D-Bheg-Leu-Asp-Ile-Ile-Trp] (HELM PEPTIDE1{[ac].[O=C([C@H](N[*:1])C1c2ccccc2C=Cc2ccccc21)[*:2]].L.D.I.I.W}$$$$V2.0)

Output:
1: 6.74; 2: 7.72

For each listed entry, give its pIC50.
1. CC[C@H](C)[C@H](NC(=O)[C@H](CC(=O)O)NC(=O)[C@H](CC(C)C)NC(=O)[C@@H](N)C1c2ccccc2CCc2ccccc21)C(=O)N[C@H](C(=O)N[C@@H](Cc1c[nH]c2ccccc12)C(=O)O)[C@@H](C)CC [Example 3, L-Bhg-Leu-Asp-Ile-Ile-Trp] (HELM PEPTIDE1{[N[C@H](C(=O)[*:2])C1c2ccccc2CCc2ccccc21].L.D.I.I.W}$$$$V2.0)
2. CC[C@H](C)[C@H](NC(=O)[C@H](CC(=O)O)NC(=O)[C@H](CC(C)C)NC(=O)[C@@H](NC(C)=O)C1c2ccccc2CCc2ccccc21)C(=O)N[C@H](C(=O)N[C@@H](Cc1c[nH]c2ccccc12)C(=O)O)[C@@H](C)CC [Example 4, Ac-L-Bhg-Leu-Asp-Ile-Ile-Trp] (HELM PEPTIDE1{[ac].[O=C([C@@H](N[*:1])C1c2ccccc2CCc2ccccc21)[*:2]].L.D.I.I.W}$$$$V2.0)
3. CC[C@H](C)[C@H](NC(=O)[C@H](CC(=O)O)NC(=O)[C@H](CC(C)C)NC(=O)[C@H](NC(C)=O)C1c2ccccc2Oc2ccccc21)C(=O)N[C@H](C(=O)N[C@@H](Cc1c[nH]c2ccccc12)C(=O)O)[C@@H](C)CC [Example 10, Ac-D-Oxn-Leu-Asp-Ile-Ile-Trp] (HELM PEPTIDE1{[ac].[O=C([C@H](N[*:1])C1c2ccccc2Oc2ccccc21)[*:2]].L.D.I.I.W}$$$$V2.0)
4. CC[C@H](C)[C@H](NC(=O)[C@H](CC(=O)O)NC(=O)[C@H](CC(C)C)NC(=O)[C@H](NC(C)=O)C1c2ccccc2CCc2ccccc21)C(=O)N(C)[C@H](C(=O)N[C@@H](Cc1c[nH]c2ccccc12)C(=O)O)[C@@H](C)CC [Example 19, Ac-D-Bhg-Leu-Asp-Ile-N-MeIle-Trp] (HELM PEPTIDE1{[ac].[O=C([C@H](N[*:1])C1c2ccccc2CCc2ccccc21)[*:2]].L.D.I.[meI].W}$$$$V2.0)

Output:
[5.52, 6.15, 6.26, 7.40]
